These data points were gathered from patent US10314831B2.

Test system: Nf1-/- Schwann cells
Experiment: PDGF-mediated proliferation of NF1-deficient Schwann cells ([3H]-thymidine)
Format: cell-based, murine
Conditions: Mus musculus; murine derived Nf1-/- Schwann cells; approximate; read-out: IC50, [3H]-thymidine dose-inhibition
Procedure: FIGS. 3A-3C depicts various properties of compound C20. FIG. 3A) Compound C20 inhibits PDGF-mediated Rac1-GTP activity at 0.5 μM in murine-derived neurofibroma cells. […] FIG. 3C) In [^3H]-thymidine dose-inhibition experiments, murine derived Nf1−/− Schwann cells were pre-treated with increasing quantities of the known Rac1 inhibitor NSC23766 or with putative Rac1 inhibitor C20. […]
pIC50: −log10 of the molar value.
REPORTED_METRIC: pIC50

O=S(=O)(Oc1cc(Cl)cc(Cl)c1)c1ccc(-c2ccccn2)s1 = ~5.70
